# MIC measurements, system: S. cerevisiae

Ask | Would you kindly share the measured MIC for Nc1nc(N)c2nc(CNc3cc(Cl)cc(Cl)c3)cnc2n1 ?
Reply | > 64 µg/mL

Ask | Would you kindly share the measured MIC for Nc1nc(N)c2nc(CNc3cccc(OCc4ccccc4)c3)cnc2n1 ?
Reply | > 64 µg/mL

Ask | Would you kindly share the measured MIC for COC(=O)c1ccc(N(C)Cc2cnc3nc(N)nc(N)c3n2)cc1 ?
Reply | > 64 µg/mL

Ask | Would you kindly share the measured MIC for CN(Cc1cnc2nc(N)nc(N)c2n1)c1ccc(C(=O)NCc2ccccn2)cc1 ?
Reply | > 64 µg/mL

Ask | Would you kindly share the measured MIC for Nc1nc(N)c2nc(CNc3ccc([N+](=O)[O-])cc3O)cnc2n1 ?
Reply | > 64 µg/mL

Ask | Would you kindly share the measured MIC for Nc1nc(N)c2nc(CNc3ccc4nc(S)sc4c3)cnc2n1 ?
Reply | 16 to 64 µg/mL
